Data origin, for the record: ChEMBL document CHEMBL5107939

Target: Sodium channel protein type 5 subunit alpha (Homo sapiens, UniProt Q14524)
Sequence (Q14524 whole entry): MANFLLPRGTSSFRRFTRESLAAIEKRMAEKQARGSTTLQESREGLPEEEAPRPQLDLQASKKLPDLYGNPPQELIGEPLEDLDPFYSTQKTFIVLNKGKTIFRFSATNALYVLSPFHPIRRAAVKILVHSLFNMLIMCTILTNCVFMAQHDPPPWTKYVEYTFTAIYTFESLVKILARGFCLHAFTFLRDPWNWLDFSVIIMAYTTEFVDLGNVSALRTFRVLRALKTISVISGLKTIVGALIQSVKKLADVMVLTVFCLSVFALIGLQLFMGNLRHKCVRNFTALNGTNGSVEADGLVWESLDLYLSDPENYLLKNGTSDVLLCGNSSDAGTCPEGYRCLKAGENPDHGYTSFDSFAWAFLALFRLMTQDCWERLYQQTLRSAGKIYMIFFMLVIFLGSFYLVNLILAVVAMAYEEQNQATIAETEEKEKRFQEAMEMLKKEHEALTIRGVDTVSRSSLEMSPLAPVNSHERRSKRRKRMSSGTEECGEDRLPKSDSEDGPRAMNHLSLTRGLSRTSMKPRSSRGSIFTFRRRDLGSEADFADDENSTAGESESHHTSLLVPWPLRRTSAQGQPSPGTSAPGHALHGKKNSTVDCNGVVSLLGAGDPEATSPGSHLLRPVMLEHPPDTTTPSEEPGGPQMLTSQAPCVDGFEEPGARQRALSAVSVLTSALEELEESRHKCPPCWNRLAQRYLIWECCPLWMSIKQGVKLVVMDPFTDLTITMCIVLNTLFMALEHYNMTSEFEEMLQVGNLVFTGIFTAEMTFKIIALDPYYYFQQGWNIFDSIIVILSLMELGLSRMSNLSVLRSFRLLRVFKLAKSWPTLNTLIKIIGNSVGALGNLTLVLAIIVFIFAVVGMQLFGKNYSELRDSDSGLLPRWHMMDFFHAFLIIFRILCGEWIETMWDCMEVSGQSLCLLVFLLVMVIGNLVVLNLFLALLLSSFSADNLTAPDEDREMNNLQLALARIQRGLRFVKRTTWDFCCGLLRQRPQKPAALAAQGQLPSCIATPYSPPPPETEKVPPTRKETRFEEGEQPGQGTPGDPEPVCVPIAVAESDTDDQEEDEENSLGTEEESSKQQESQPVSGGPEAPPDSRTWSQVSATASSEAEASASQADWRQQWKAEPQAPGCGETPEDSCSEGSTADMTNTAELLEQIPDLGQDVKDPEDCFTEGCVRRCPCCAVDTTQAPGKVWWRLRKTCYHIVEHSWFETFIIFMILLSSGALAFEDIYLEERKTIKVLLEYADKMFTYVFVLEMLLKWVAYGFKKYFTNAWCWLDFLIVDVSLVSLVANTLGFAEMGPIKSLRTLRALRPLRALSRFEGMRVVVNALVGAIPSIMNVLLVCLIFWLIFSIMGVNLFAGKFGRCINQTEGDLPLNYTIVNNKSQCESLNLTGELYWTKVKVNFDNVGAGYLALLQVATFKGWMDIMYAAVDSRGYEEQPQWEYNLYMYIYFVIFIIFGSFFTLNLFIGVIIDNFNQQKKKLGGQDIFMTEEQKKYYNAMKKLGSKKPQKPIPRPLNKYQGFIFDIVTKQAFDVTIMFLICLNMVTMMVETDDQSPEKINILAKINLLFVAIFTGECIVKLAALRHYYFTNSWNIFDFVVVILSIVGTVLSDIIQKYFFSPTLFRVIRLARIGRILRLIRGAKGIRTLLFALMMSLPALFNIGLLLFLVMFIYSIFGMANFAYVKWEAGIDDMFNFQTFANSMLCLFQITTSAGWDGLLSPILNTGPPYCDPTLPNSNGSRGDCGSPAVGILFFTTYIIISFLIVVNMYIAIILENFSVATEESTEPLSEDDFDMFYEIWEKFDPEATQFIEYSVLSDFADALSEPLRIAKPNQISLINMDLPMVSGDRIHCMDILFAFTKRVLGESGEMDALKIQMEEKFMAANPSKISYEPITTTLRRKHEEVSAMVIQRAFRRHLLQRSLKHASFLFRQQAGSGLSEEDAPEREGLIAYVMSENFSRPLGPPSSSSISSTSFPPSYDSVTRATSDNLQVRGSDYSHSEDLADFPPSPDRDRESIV
Assay: Inhibition of human NaV1.5 expressed in HEK293 by PatchXpress automated patch clamp assay
Type: cell-based
pIC50: −log10 of the molar value.
pIC50: recorded values
metric: pIC50

INSERT INTO assay_data (molecule_smiles, target_system, recorded_result) VALUES
  ('Cn1cc(-c2cccc(C(=O)Nc3cc(N4CC[C@@H](C(C)(C)O)C4)ncc3C(F)(F)F)n2)cn1', 'Sodium channel protein type 5 subunit alpha (Homo sapiens, UniProt Q14524)', 4.52),
  ('CC(C)(O)[C@@H]1CCN(c2cnc(C(F)(F)F)c(NC(=O)c3cccc(-c4cnn(CC(F)(F)F)c4)n3)c2)C1', 'Sodium channel protein type 5 subunit alpha (Homo sapiens, UniProt Q14524)', 4.52);

====

Assay: Mutagenicity in Salmonella typhimurium TA1535 at 30 to 5000 ug in presence of S9 metabolic activation system for 48 hrs by ames test
Format: toxicity, Salmonella enterica subsp. enterica serovar Typhimurium
Settings: in vitro, dose 30-5000 µg
metric: Activity

INSERT INTO assay_data (molecule_smiles, recorded_result) VALUES
  ('Cn1cc(-c2cccc(C(=O)Nc3cc(N4CC[C@@H](C(C)(C)O)C4)ncc3C(F)(F)F)n2)cn1', 'Non-Toxic'),
  ('Cc1nc(N)cc(N2CC[C@@H](C(C)(C)O)C2)n1', 'Non-Toxic'),
  ('CC(C)(O)[C@@H]1CCN(c2cc(N)c(C(F)(F)F)cn2)C1', 'Toxic'),
  ('CC(C)(O)[C@@H]1CCN(c2cnc(C(F)(F)F)c(N)c2)C1', 'Non-Toxic');

====

Assay: Intrinsic clearance in po dosed CD rat measured after 120 mins by LC-MS/MS analysis
Format: ADME, organism-based
Conditions: in vivo, 2 h
# cutoff 200 L/h/kg applies to CL; >= gives MET, < gives NOT MET

INSERT INTO measurements (molecule_smiles, label_value) VALUES
  ('Cn1cc(-c2cccc(C(=O)Nc3cc(N4CC[C@@H](C(C)(C)O)C4)ncc3C(F)(F)F)n2)cn1', 'MET'),
  ('CC(C)(O)[C@@H]1CCN(c2cnc(C(F)(F)F)c(NC(=O)c3cccc(-c4cnn(CC5CC5)c4)n3)c2)C1', 'MET'),
  ('C[C@H]1CN(c2cc(NC(=O)c3cccc(-c4cnn(C)c4)n3)c(C(F)(F)F)cn2)CCN1C1COC1', 'MET'),
  ('Cn1cc(-c2cccc(C(=O)Nc3cc(N4CC[C@@H](C(C)(C)O)C4)cnc3C(F)(F)F)n2)cn1', 'NOT MET'),
  ('CC(C)(O)[C@@H]1CCN(c2cnc(C(F)(F)F)c(NC(=O)c3cccc(-c4cnn(CC(F)(F)F)c4)n3)c2)C1', 'NOT MET');

====

Target: Voltage-gated inwardly rectifying potassium channel KCNH2 (Homo sapiens, UniProt Q12809)
Sequence (Q12809 whole entry): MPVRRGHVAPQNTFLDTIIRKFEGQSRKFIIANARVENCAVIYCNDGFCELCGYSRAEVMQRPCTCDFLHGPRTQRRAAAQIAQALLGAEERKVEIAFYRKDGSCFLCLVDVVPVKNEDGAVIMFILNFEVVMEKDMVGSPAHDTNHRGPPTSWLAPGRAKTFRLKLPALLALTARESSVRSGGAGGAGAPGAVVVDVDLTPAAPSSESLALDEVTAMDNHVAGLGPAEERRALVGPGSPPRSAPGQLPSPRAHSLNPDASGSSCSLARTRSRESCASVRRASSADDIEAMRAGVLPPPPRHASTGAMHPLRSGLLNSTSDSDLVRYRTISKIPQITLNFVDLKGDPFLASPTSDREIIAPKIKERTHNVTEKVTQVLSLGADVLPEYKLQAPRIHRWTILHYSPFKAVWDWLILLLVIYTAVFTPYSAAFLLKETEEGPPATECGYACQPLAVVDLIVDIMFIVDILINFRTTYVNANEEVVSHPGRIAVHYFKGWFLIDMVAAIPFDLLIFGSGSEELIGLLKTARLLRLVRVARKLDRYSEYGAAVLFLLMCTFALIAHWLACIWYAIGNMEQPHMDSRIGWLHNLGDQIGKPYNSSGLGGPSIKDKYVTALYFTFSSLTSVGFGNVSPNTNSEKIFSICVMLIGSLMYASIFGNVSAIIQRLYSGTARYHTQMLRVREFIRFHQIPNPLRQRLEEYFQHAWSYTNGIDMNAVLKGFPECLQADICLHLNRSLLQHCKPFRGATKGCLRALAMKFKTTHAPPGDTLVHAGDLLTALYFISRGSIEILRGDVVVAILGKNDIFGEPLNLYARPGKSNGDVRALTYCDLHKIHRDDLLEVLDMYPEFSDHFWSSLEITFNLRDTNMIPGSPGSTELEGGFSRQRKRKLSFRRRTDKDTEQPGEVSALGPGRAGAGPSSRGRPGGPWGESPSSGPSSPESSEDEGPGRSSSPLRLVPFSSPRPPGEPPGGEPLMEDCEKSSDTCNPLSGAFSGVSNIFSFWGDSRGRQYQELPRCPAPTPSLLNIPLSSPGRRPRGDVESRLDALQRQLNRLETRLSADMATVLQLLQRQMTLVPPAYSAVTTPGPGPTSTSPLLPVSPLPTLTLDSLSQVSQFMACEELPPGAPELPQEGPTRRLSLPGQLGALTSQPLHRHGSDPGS
Test: Inhibition of human ERG tail current in cells at -80 mV holding potential by PatchXpress automated patch clamp assay
metric: IC50 (µM)

INSERT INTO results (molecule_smiles, unit_of_measurement, recorded_result) VALUES
  ('Cn1cc(-c2cccc(C(=O)Nc3cc(N4CC[C@@H](C(C)(C)O)C4)ncc3C(F)(F)F)n2)cn1', 'µM', 7.6);

====

Test: MRT in po dosed CD rat measured after 120 mins by LC-MS/MS analysis
Format: ADME, organism-based
Settings: in vivo
# MRT listing for each entry below
metric: MRT (h)

INSERT INTO assay_data (molecule_smiles, metric, unit_of_measurement, recorded_result) VALUES
  ('Cn1cc(-c2cccc(C(=O)Nc3cc(N4CC[C@@H](C(C)(C)O)C4)cnc3C(F)(F)F)n2)cn1', 'MRT', 'h', 4.9),
  ('CC(C)(O)[C@@H]1CCN(c2cnc(C(F)(F)F)c(NC(=O)c3cccc(-c4cnn(C5CCC5)c4)n3)c2)C1', 'MRT', 'h', 2.1),
  ('C[C@H]1CN(c2cc(NC(=O)c3cccc(-c4cnn(C)c4)n3)c(C(F)(F)F)cn2)CCN1C1COC1', 'MRT', 'h', 2.2);
